target.under.test: T1, MAST2-1 (human)
T1 chain: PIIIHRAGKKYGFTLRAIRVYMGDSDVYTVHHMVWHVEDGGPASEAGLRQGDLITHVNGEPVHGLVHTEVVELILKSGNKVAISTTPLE
procedure.details: FP; competitive FP with fRSK1 tracer
pKd: −log10 of the molar value. Where no end group is shown, it is not given here. The star is where a group is joined. Biotin = O=C1N[C@H]2[C@H](CS[C@H]2CCCCC(=O)*)N1; TTDS = NCCCOCCOCCOCCCNC(=O)CCC(=O)*

binder	pKd
{Biotin-TTDS}-DEDQHTQITKV [PTEN_11]	5.50
